- target-or-test-system: Sulfonylurea receptor 1, Kir6.2 (Homo sapiens) (UniProt Q14654+Q09428)
- assay-name: Antiarrhythmic effect in hSUR1/hKir6.2 (pancreatic KATP channel) transfected in CHO cells at a dose of 10 uM
- Assay type: functional, cell-based
- condition-set: at 10 µM
recorded-endpoint: inhibition (%)
Note: unit % is implicit; provide only the numeric part.

Query: State the measured inhibition (Sulfonylurea receptor 1, Kir6.2 (Homo sapiens) (UniProt Q14654+Q09428)) of CCOc1ccc(CCNC(=O)c2cc(Cl)ccc2OC)cc1S(=O)(=O)/N=C(\S)NC
Reply: 75.4

Query: Please report inhibition with Sulfonylurea receptor 1, Kir6.2 (Homo sapiens) (UniProt Q14654+Q09428) for item CN/C(S)=N/S(=O)(=O)c1cc(CCNC(=O)c2cc(Cl)ccc2OC)ccc1Br .
Reply: 67.7

Query: Lab note: record inhibition of CN/C(S)=N/S(=O)(=O)c1cc(CCNC(=O)c2cc(Cl)ccc2OC)ccc1F tested on Sulfonylurea receptor 1, Kir6.2 (Homo sapiens) (UniProt Q14654+Q09428).
Reply: 18.1

Query: Fill in inhibition for CN/C(S)=N/S(=O)(=O)c1cc(CCNC(=O)c2cc(Cl)ccc2OC)ccc1OCCOC tested with Sulfonylurea receptor 1, Kir6.2 (Homo sapiens) (UniProt Q14654+Q09428).
Reply: 49.5

Query: Give the observed inhibition of C=CCOc1ccc(CCNC(=O)c2cc(Cl)ccc2OC)cc1S(=O)(=O)/N=C(\S)NC for Sulfonylurea receptor 1, Kir6.2 (Homo sapiens) (UniProt Q14654+Q09428).
Reply: 94

---

- target-or-test-system: Sulfonylurea receptor 1, Kir6.2 (Homo sapiens) (UniProt Q14654+Q09428)
- assay-name: Antiarrhythmic effect in hSUR1/hKir6.2 (pancreatic KATP channel) transfected in CHO cells at a dose of 10 uM
- Format: functional, cell-based
- condition-set: at 10 µM
Hi there, I'd appreciate the recorded inhibition for every entry that follows.
Dear colleague, please return just the value in %, with no unit written.

Query: Provide one value: measured inhibition of CNC(=O)NS(=O)(=O)c1cc(CCNC(=O)c2cc(Cl)ccc2OC)ccc1OC
Reply: 43.9

Query: Provide one value: measured inhibition of CNC(=O)NS(=O)(=O)c1ccc(CCNC(=O)c2cc(Cl)ccc2OC)cc1
Reply: 86.3

Query: Supply measured inhibition of CN/C(S)=N/S(=O)(=O)c1cc(CCNC(=O)c2cc(Cl)ccc2OC)ccc1C(C)C in your reply.
Reply: 92.4

Query: Provide one value: measured inhibition of CN/C(S)=N/S(=O)(=O)c1cc(CCNC(=O)c2cc(Cl)ccc2OC)ccc1OC(C)C
Reply: 81.1

Query: Give inhibition for the following compound: CNC(=O)NS(=O)(=O)c1cc(CCNC(=O)c2cc(Cl)ccc2OC)c(OC)cc1OC
Reply: 13.5

Query: Identify the reported inhibition for the following entry. CN/C(S)=N/S(=O)(=O)c1cc(CCNC(=O)c2cc(Cl)ccc2OC)ccc1SC
Reply: 81.4

Query: Tell me its inhibition given CN/C(S)=N/S(=O)(=O)c1cc(CCNC(=O)c2cc(Cl)ccc2OC)ccc1-c1cccnc1 as the entry.
Reply: 62.3

Query: Output measured inhibition for this item: CN/C(S)=N/S(=O)(=O)c1cc(CCNC(=O)c2cc(Cl)ccc2OC)ccc1N1CCOCC1
Reply: 89.1

Query: State its inhibition: CN/C(S)=N/S(=O)(=O)c1cc(CCNC(=O)c2cc(Cl)ccc2OC)ccc1[S+](C)[O-] (centres undefined)
Reply: 17.6

---

- target-or-test-system: Sulfonylurea receptor 1, Kir6.2 (Homo sapiens) (UniProt Q14654+Q09428)
- assay-name: Antiarrhythmic effect in hSUR1/hKir6.2 (pancreatic KATP channel) transfected in CHO cells at a dose of 0.1 uM
- Format: functional, cell-based
- condition-set: at 0.1 µM
recorded-endpoint: inhibition (%)
A number alone suffices; assume %.

Query: Return inhibition for the following molecule: CN/C(S)=N/S(=O)(=O)c1cc(CCNC(=O)c2cc(Cl)ccc2OC)ccc1SC
Reply: -2.1

Query: Assign inhibition to the following record: CN/C(S)=N/S(=O)(=O)c1cc(CCNC(=O)c2cc(Cl)ccc2OC)ccc1C(C)C
Reply: 12

Query: Write down inhibition measured for item CN/C(S)=N/S(=O)(=O)c1cc(CCNC(=O)c2cc(Cl)ccc2OC)ccc1[S+](C)[O-] (stereo not drawn)
Reply: 1.9

Query: Kindly indicate its recorded inhibition. Item: CN/C(S)=N/S(=O)(=O)c1cc(CCNC(=O)c2cc(Cl)ccc2OC)ccc1-c1ccccn1
Reply: 6.6

Query: Name the recorded inhibition of the molecule listed here: COc1ccc(Cl)cc1C(=O)NCCc1ccc(OC)c(S(=O)(=O)NC(=O)NC2CCCCC2)c1
Reply: 65.5

Query: Return the recorded inhibition value; entry: CN/C(S)=N/S(=O)(=O)c1cc(CCNC(=O)c2cc(Cl)ccc2OC)ccc1-c1ccco1
Reply: -2.6

Query: Supply measured inhibition of CN/C(S)=N/S(=O)(=O)c1cc(CCNC(=O)c2cc(Cl)ccc2OC)ccc1F in your reply.
Reply: -3.9

Query: Identify measured inhibition associated with CN/C(S)=N/S(=O)(=O)c1cc(CCNC(=O)c2cc(Cl)ccc2OC)ccc1S(C)(=O)=O
Reply: 1.8

Query: Provide one value: measured inhibition of CN/C(S)=N/S(=O)(=O)c1cc(CCNC(=O)c2cc(Cl)ccc2OC)ccc1Br
Reply: 3.3

Query: Given the molecule CN/C(S)=N/S(=O)(=O)c1cc(CCNC(=O)c2cc(Cl)ccc2OC)ccc1OC(F)(F)F , write its reported inhibition.
Reply: 0.8

Query: Entry CCc1ccc(CCNC(=O)c2cc(Cl)ccc2OC)cc1S(=O)(=O)/N=C(\S)NC needs its inhibition filled in; supply it.
Reply: 1.3

Query: Recall and state the measured inhibition for CN/C(S)=N/S(=O)(=O)c1cc(CCNC(=O)c2cc(Cl)ccc2OC)ccc1Cl .
Reply: 2.3

Query: Hello, please tell me recorded inhibition for this one: COc1ccc(Cl)cc1C(=O)NCCc1ccc(OC)c(S(=O)(=O)/N=C(\S)NC2CCCCC2)c1
Reply: 20.5

Query: Return inhibition (reported value) for this molecule: CNC(=O)NS(=O)(=O)c1cc(CCNC(=O)c2cc(Cl)ccc2OC)c(OC)cc1OC
Reply: -0.6

Query: Report inhibition, nothing else, for this molecule: CN/C(S)=N/S(=O)(=O)c1cc(CCNC(=O)c2cc(Cl)ccc2OC)c(C)c(C)c1OC
Reply: 0.8

Query: Given CN/C(S)=N/S(=O)(=O)c1cc(CCNC(=O)c2cc(Cl)ccc2OC)ccc1N1CCOCC1 , respond with its inhibition.
Reply: -1.6

Query: For the molecule CNC(=O)NS(=O)(=O)c1cc(CCNC(=O)c2cc(Cl)ccc2OC)ccc1OC , give its reported inhibition.
Reply: -2.8

Query: Determine its reported inhibition: CN/C(S)=N/S(=O)(=O)c1cc2c(cc1OC)OCCC2CNC(=O)c1cc(Cl)ccc1OC (single isomer, unassigned; (-))
Reply: 6.8

---

- target-or-test-system: Sulfonylurea receptor 1, Kir6.2 (Homo sapiens) (UniProt Q14654+Q09428)
- assay-name: Antiarrhythmic effect in hSUR1/hKir6.2 (pancreatic KATP channel) transfected in CHO cells at a dose of 0.1 uM
- Assay type: functional, cell-based
- condition-set: at 0.1 µM
recorded-endpoint: inhibition (%)
Please give a number only; it is taken to be in %.

Query: Determine its reported inhibition: CN/C(S)=N/S(=O)(=O)c1cc(CCNC(=O)c2cc(Cl)ccc2OC)ccc1OCCOC
Reply: 12.5

Query: For the compound CNC(=O)NS(=O)(=O)c1cc2c(cc1OC)OCCC2CNC(=O)c1cc(Cl)ccc1OC (single isomer, unassigned; (+)) , give its measured inhibition value.
Reply: 2

Query: In one line, give reported inhibition of the entry CNC(=S)NS(=O)(=O)c1cc(CCNC(=O)c2cc(Cl)ccc2OC)ccc1OC .
Reply: 5

Query: Answer with the recorded inhibition for the compound listed here: CNC(=O)NS(=O)(=O)c1cc2c(cc1OC)OCCC2CNC(=O)c1cc(Cl)ccc1OC (single isomer, unassigned; (-))
Reply: 2.5

Query: Output measured inhibition for this item: COc1ccc(Cl)cc1C(=O)NCCc1ccc(OC)c(S(=O)(=O)NC(=O)N(C)C)c1
Reply: -3.6

---

- target-or-test-system: Sulfonylurea receptor 1, Kir6.2 (Homo sapiens) (UniProt Q14654+Q09428)
- assay-name: Antiarrhythmic effect in hSUR1/hKir6.2 (pancreatic KATP channel) transfected in CHO cells at a dose of 0.1 uM
- Format: functional, cell-based
- condition-set: at 0.1 µM
recorded-endpoint: inhibition (%)
The figure you give is taken to be in %; do not add the unit.

Query: Entry CN/C(S)=N/S(=O)(=O)c1cc2c(cc1OC)OCCC2CNC(=O)c1cc(Cl)ccc1OC (single isomer, unassigned; (+)) needs its inhibition filled in; supply it.
Reply: -3.9

Query: Retrieve inhibition measured for CN/C(S)=N/S(=O)(=O)c1cc(CCNC(=O)c2cc(Cl)ccc2OC)ccc1I and print it.
Reply: 1.7

Query: Could you please provide reported inhibition for CN/C(S)=N/S(=O)(=O)c1cc(CCNC(=O)c2cc(Cl)ccc2OC)ccc1OC(C)C ? Thanks!
Reply: -4.7

Query: Consider the molecule CN/C(S)=N/S(=O)(=O)c1cc(CCNC(=O)c2cc(Cl)ccc2OC)ccc1OCCOCCOC and give its recorded inhibition.
Reply: 1

Query: Consider the molecule CCOc1ccc(CCNC(=O)c2cc(Cl)ccc2OC)cc1S(=O)(=O)/N=C(\S)NC and give its recorded inhibition.
Reply: -2.7

Query: Please report inhibition for the following molecule: CCCc1ccc(CCNC(=O)c2cc(Cl)ccc2OC)cc1S(=O)(=O)/N=C(\S)NC
Reply: 2.3

Query: State its inhibition for this molecule: CN/C(S)=N/S(=O)(=O)c1cc(CCNC(=O)c2cc(Cl)ccc2OC)cc(OC)c1OC
Reply: -3.8

Query: Return inhibition (reported value) for this molecule: C#Cc1ccc(CCNC(=O)c2cc(Cl)ccc2OC)cc1S(=O)(=O)/N=C(\S)NC
Reply: 3.3

Query: Let me know recorded inhibition for CN/C(S)=N/S(=O)(=O)c1cc(CCNC(=O)c2cc(Cl)ccc2OC)c(OC)c(C)c1OC , thanks.
Reply: -2
